target: O-acetylserine sulfhydrylase (Mycobacterium tuberculosis, UniProt P9WP55); test: Inhibition of hexahistidine-tagged recombinant Mycobacterium tuberculosis CysK1 expressed in Escherichia coli BL21(DE3) assessed as amount of cysteine produced using O-acetyl-L-serine as substrate incubated for 12 mins by acid-ninhydrin based spectrophotometric assay
measurement-name: IC50 (µM)
Quick note: give the figure in µM, leave out the unit.

Exam item: // output IC50; input O=C(Nc1cccc(C(=O)O)c1)Nc1ccc(Cl)c(Cl)c1 ; system O-acetylserine sulfhydrylase (Mycobacterium tuberculosis, UniProt P9WP55)
Marked response: 11.2

Exam item: // output IC50; input O=C(Nc1ccc(Cl)c(Cl)c1)Nc1ccc(O)c(C(=O)O)c1 ; system O-acetylserine sulfhydrylase (Mycobacterium tuberculosis, UniProt P9WP55)
Marked response: 2.5

Exam item: // output IC50; input O=C(Nc1cccc(C(=O)O)c1)Nc1cccc(-c2ccccc2)c1 ; system O-acetylserine sulfhydrylase (Mycobacterium tuberculosis, UniProt P9WP55)
Marked response: 4.9

Exam item: // output IC50; input O=C(Nc1ccc(Br)cc1)Nc1ccc(C(=O)O)c(O)c1 ; system O-acetylserine sulfhydrylase (Mycobacterium tuberculosis, UniProt P9WP55)
Marked response: 29.4

Exam item: // output IC50; input O=C(Nc1cccc(-c2ccccc2)c1)Nc1ccc(O)c(C(=O)O)c1 ; system O-acetylserine sulfhydrylase (Mycobacterium tuberculosis, UniProt P9WP55)
Marked response: 9.3

Exam item: // output IC50; input O=C(Nc1cccc(-c2ccccc2)c1)Nc1ccc(C(=O)O)c(O)c1 ; system O-acetylserine sulfhydrylase (Mycobacterium tuberculosis, UniProt P9WP55)
Marked response: 21.2

Source listed as ChEMBL document CHEMBL5260815.
